Please go through the items and note down their GI50.
Test system: RPMI-8226
method notes: NCI tumour cell line growth inhibition, 48 h
Calls of active or inactive are those of the source. No stated cut-off is given here; in the data, active = GI50 up to about 1.1 µM and inactive = higher.

Q: Value lookup for GI50; key = `O=C1NC(=O)c2ccc([N+](=O)[O-])c3cccc1c23`
Result: 14.5 µM (inactive)

Q: Value lookup for GI50; key = `Cc1ccc(-c2cc(O)c3cc4c(cc3n2)OCO4)cc1`
Result: 2.13 µM (inactive)

Q: Value lookup for GI50; key = `CCc1cccc(C)c1NC(=O)C1=C(C)NC(C)=C(C(=O)Nc2c(C)cccc2CC)C1c1ccc([N+](=O)[O-])cc1`
Result: 15.3 µM (inactive)

Q: Value lookup for GI50; key = `CCN(CC)c1ccc2cc(-c3nnc(-c4ccccc4)[nH]3)c(=O)oc2c1`
Result: 54.2 µM (inactive)

Q: Value lookup for GI50; key = COC(=O)C1Cc2cccc(C)c2C1 (stereo not given)
Result: 93.5 µM (inactive)

====

Tested on: PC-3
method notes: NCI tumour cell line growth inhibition, 48 h
Calls of active or inactive are those of the source. Cut-off read from the data, not from the text of the source: active = GI50 up to about 1.1 µM and inactive = higher.
Your response should consist of one outcome taken from active, inactive

Q: What did this assay record as the result for O=CC1OC(=O)c2cc(O)c(O)c(O)c2-c2c(cc(O)c(O)c2O)C(=O)OC1C(O)C(O)CO (configuration not stated) ?
Result: inactive

Q: What did this assay record as the result for COc1cc(OC)c2c(c1)OC(c1cccnc1)C(c1ccccc1)C2=O (configuration not stated) ?
Result: inactive

Q: What did this assay record as the result for `CN(NC(=O)c1ccco1)C1=NCCCCN1` ?
Result: inactive

Q: What did this assay record as the result for `CCOC(=O)C1(CO)CSCCSC1` ?
Result: inactive

Q: What did this assay record as the result for `O=C(O)CCCC(=O)Nn1c(Cc2ccc(Cl)cc2)n[nH]c1=O` ?
Result: inactive

Q: What did this assay record as the result for `CCOC(=O)c1ccc(-c2cc(C)no2)[nH]1` ?
Result: inactive

Q: What did this assay record as the result for COc1ccc(OC)c(C23CCCC(C2)N(C)CC3)c1 (configuration not stated) ?
Result: inactive

Q: What did this assay record as the result for `Cc1ccc(C(=O)/C=C2\Nc3ccccc3N=C2NC23CC4CC(CC(C4)C2)C3)cc1` ?
Result: inactive

Q: What did this assay record as the result for `Nc1nc(N)nc(CCCCc2nc(N)nc(N)n2)n1` ?
Result: inactive

Q: What did this assay record as the result for `CC1=CC[C@@]2(C)[C@@H]([C@@H]1C)[C@H]1CC[C@@H]3[C@@]4(C)CC[C@H](O)C(C)(C)[C@@H]4CC[C@@]3(C)[C@]1(C)C[C@@H]2O` ?
Result: inactive

Q: What did this assay record as the result for `COc1cc([C@@H]2c3cc4c(cc3[C@@H](Nc3ccccc3C(=O)c3ccccc3)[C@H]3COC(=O)[C@H]23)OCO4)cc(OC)c1OC` ?
Result: active

Q: What did this assay record as the result for `CCN(CC)/[N+]([O-])=N/OCOC` ?
Result: inactive

====

Tested on: HT-29
method notes: NCI tumour cell line growth inhibition, 48 h
The source made the active and inactive calls. Cut-off read from the data, not from the text of the source: active = GI50 up to about 1.1 µM and inactive = higher.
parameter: GI50

Q: Checklist item: GI50 tested on HT-29, entry `COc1ccc(/C(Cl)=C(\C=O)c2ccc(OC)c(OC)c2)cc1OC` , value?
Result: 41.6 µM (inactive)

Q: Checklist item: GI50 tested on HT-29, entry `O=[N+]([O-])C(=C(Sc1ccccc1)Sc1ccccc1)C(Cl)=C(Cl)Cl` , value?
Result: 0.123 µM (active)

Q: Checklist item: GI50 tested on HT-29, entry COc1cc(NS(C)(=O)=O)ccc1Nc1c2ccccc2nc2c1[nH]c1ccc(NC3OC(CO)C(O)C(O)C3O)cc12 (configuration not stated) , value?
Result: 0.159 µM (active)

Q: Checklist item: GI50 tested on HT-29, entry `CC(C)(C)OC(=O)N1CCCC1=O` , value?
Result: > 10 µM (inactive)

Q: Checklist item: GI50 tested on HT-29, entry `C/C1=C\CC/C(C)=C/C=C(/C(C)C)CC/C(C(=O)O)=C/CC1` , value?
Result: 46.7 µM (inactive)

Q: Checklist item: GI50 tested on HT-29, entry `CCOC(=O)/C(C#N)=C1/C(O)=C(C(=O)OC)C(C(=O)OC)=C1C(=O)OC.c1ccncc1` , value?
Result: > 100 µM (inactive)

Q: Checklist item: GI50 tested on HT-29, entry O=C1NC2CCCCC2N=C1CC(=O)c1ccc(Br)cc1 (configuration not stated) , value?
Result: > 100 µM (inactive)

Q: Checklist item: GI50 tested on HT-29, entry c1ccc(COCC2OC3c4ccccc4COC3C2OCc2ccccc2)cc1 (configuration not stated) , value?
Result: 99.1 µM (inactive)

Q: Checklist item: GI50 tested on HT-29, entry CCCCCCCCCCCCC(Br)C(C)=O (configuration not stated) , value?
Result: > 100 µM (inactive)

Q: Checklist item: GI50 tested on HT-29, entry `O=C(/C=C/c1ccc(O)c(O)c1)NCCc1ccc(-c2ccccc2)cc1` , value?
Result: 63.5 µM (inactive)

Q: Checklist item: GI50 tested on HT-29, entry `COc1ccccc1/N=N/c1c(-c2ccccc2)nn(C(=O)CC(=O)Nc2cccc(C)c2)c1-c1ccccc1` , value?
Result: 16.4 µM (inactive)

Q: Checklist item: GI50 tested on HT-29, entry `O=C(O)/C(O)=C\C(=O)c1ccc(Br)cc1` , value?
Result: > 100 µM (inactive)

Q: Checklist item: GI50 tested on HT-29, entry Cn1c(C(C#N)c2cc(Cl)ncn2)nc2ccccc21 (configuration not stated) , value?
Result: > 100 µM (inactive)

Q: Checklist item: GI50 tested on HT-29, entry `Oc1c2c(nc3cc4c(cc13)OCO4)-c1ccccc1CCC2` , value?
Result: 34.4 µM (inactive)

Q: Checklist item: GI50 tested on HT-29, entry `CCc1ncc(CO)n1Cc1cccc2ccccc12` , value?
Result: 96.8 µM (inactive)

Q: Checklist item: GI50 tested on HT-29, entry `Cc1cc(C[C@H]2O[C@@H]3OC(C)(C)O[C@@H]3[C@H]3OC(C)(C)O[C@H]32)c2ccccc2n1` , value?
Result: > 100 µM (inactive)

Q: Checklist item: GI50 tested on HT-29, entry `O=P(O)(O)c1ccc(-c2ccc(I)cc2)cc1` , value?
Result: > 100 µM (inactive)

Q: Checklist item: GI50 tested on HT-29, entry `O=S(=O)(CF)OCCCCOS(=O)(=O)CF` , value?
Result: > 100 µM (inactive)

Q: Checklist item: GI50 tested on HT-29, entry `O=c1[nH]c(=O)n([C@@H]2C[C@H](CO)[C@H](O)C2)cc1/C=C/Br` , value?
Result: > 100 µM (inactive)

Q: Checklist item: GI50 tested on HT-29, entry `O=C(O)CCCC(=O)Nn1c(Cc2ccc(Cl)cc2)n[nH]c1=O` , value?
Result: > 100 µM (inactive)

Q: Checklist item: GI50 tested on HT-29, entry O=C1C2=C(CCCCC2)C2CCCCC12O (configuration not stated) , value?
Result: > 100 µM (inactive)

Q: Checklist item: GI50 tested on HT-29, entry `c1csc(-c2nccc3c2[nH]c2ccccc23)c1` , value?
Result: 15.1 µM (inactive)

Q: Checklist item: GI50 tested on HT-29, entry `Cc1cc(C)c(S(=O)(=O)N(CCCCCCN)OCCCON(CCCCCCN)S(=O)(=O)c2c(C)cc(C)cc2C)c(C)c1` , value?
Result: 1.66 µM (inactive)

Q: Checklist item: GI50 tested on HT-29, entry CC(C)C1=CC23CCC4C(C)(C(=O)O)CCCC4(C)C2CC1C1C(=O)N(c2ccc(C(=O)O)cc2)C(=O)C13 (configuration not stated) , value?
Result: > 100 µM (inactive)

Q: Checklist item: GI50 tested on HT-29, entry `CN(CCN)[C@H](CSSC[C@@H](c1ccccc1O)N(C)CCN)c1ccccc1O` , value?
Result: 9.55 µM (inactive)

Q: Checklist item: GI50 tested on HT-29, entry `CCCCC/C(=N\c1[nH]nnc1C(N)=O)OCC` , value?
Result: > 100 µM (inactive)

Q: Checklist item: GI50 tested on HT-29, entry `CCOc1ccc2ccc3cccnc3c2n1` , value?
Result: 34.1 µM (inactive)

Q: Checklist item: GI50 tested on HT-29, entry N#CC(c1ccccn1)c1nc2ccccc2[nH]1 (configuration not stated) , value?
Result: > 100 µM (inactive)

Q: Checklist item: GI50 tested on HT-29, entry `Cc1ccc(-c2cc(O)c3cc4c(cc3n2)OCO4)cc1` , value?
Result: 2.18 µM (inactive)

Q: Checklist item: GI50 tested on HT-29, entry COC(=O)C(=O)C(C(=O)C(=O)Nc1ccc(C)cc1C)c1nc2ccccc2nc1O (configuration not stated) , value?
Result: > 100 µM (inactive)

Q: Checklist item: GI50 tested on HT-29, entry COc1cccc(N[C@@H]2c3cc4c(cc3C(c3cc(OC)c(O)c(OC)c3)[C@H]3C(=O)OCC32)OCO4)c1 (some centres not stated) , value?
Result: 0.973 µM (active)

Q: Checklist item: GI50 tested on HT-29, entry C/C=C/[C@H]1O[C@@](O)([C@@H](C)[C@H](O)[C@H](C)[C@H]2OC(=O)/C(OC)=C/C(C)=C/[C@@H](C)[C@@H](O)[C@@H](CC)[C@@H](O)[C@H](C)C/C(C)=C/C=C/[C@@H]2OC)C[C@H](OC2CC(O)C(O)C(C)O2)[C@@H]1C (some centres not stated) , value?
Result: < 0.0075 µM (active)

Q: Checklist item: GI50 tested on HT-29, entry O=C(CCCN1CCC2(CC1)CC(c1ccccc1)OC2=O)c1ccc(F)cc1 (configuration not stated) , value?
Result: 9.06 µM (inactive)

Q: Checklist item: GI50 tested on HT-29, entry `CCC1(CC)C(=O)NC(=S)N=C1N` , value?
Result: > 100 µM (inactive)

Q: Checklist item: GI50 tested on HT-29, entry `O=C(N/N=C/c1ccc([N+](=O)[O-])cc1)Nc1ccc(Br)cc1` , value?
Result: 97.1 µM (inactive)

Q: Checklist item: GI50 tested on HT-29, entry `O=C(NNC(=O)c1ccccc1O)c1ccccc1O` , value?
Result: 6.71 µM (inactive)

Q: Checklist item: GI50 tested on HT-29, entry `COc1cc(OC)c(C(=O)c2cccs2)cc1N` , value?
Result: > 100 µM (inactive)

Q: Checklist item: GI50 tested on HT-29, entry `Cc1ccccc1NC(=O)C(=O)CC(=O)c1ccc([N+](=O)[O-])cc1` , value?
Result: > 100 µM (inactive)

Q: Checklist item: GI50 tested on HT-29, entry CC(C)OC(=O)C1Cc2c([nH]c3ccccc23)C(c2ccccc2)N1 (configuration not stated) , value?
Result: 98.4 µM (inactive)

Q: Checklist item: GI50 tested on HT-29, entry C=CC(O)(CBr)CCC(Br)C(=C)C (configuration not stated) , value?
Result: > 10 µM (inactive)

Q: Checklist item: GI50 tested on HT-29, entry `COC(=O)[C@@H]1C[C@@H](O)CN1C(=O)c1ccc([N+](=O)[O-])cc1[N+](=O)[O-]` , value?
Result: 51.2 µM (inactive)

Q: Checklist item: GI50 tested on HT-29, entry COc1cc(/C=c2\sc3n(c2=O)C(c2ccc(Cl)cc2)C2=C(CCCC2C)N=3)cc(OC)c1OC (configuration not stated) , value?
Result: > 100 µM (inactive)
